pIC50 overview
- measurement.target: mouse NPY-Y5 receptors (mNPY-Y5) (Mus musculus, UniProt O70342)
- Construct: The full-length cDNA which contains the mouse NPY-Y5 (mNPY-Y5) receptor coding was amplified from mouse brain cDNA
- Sequence (O70342 1-466): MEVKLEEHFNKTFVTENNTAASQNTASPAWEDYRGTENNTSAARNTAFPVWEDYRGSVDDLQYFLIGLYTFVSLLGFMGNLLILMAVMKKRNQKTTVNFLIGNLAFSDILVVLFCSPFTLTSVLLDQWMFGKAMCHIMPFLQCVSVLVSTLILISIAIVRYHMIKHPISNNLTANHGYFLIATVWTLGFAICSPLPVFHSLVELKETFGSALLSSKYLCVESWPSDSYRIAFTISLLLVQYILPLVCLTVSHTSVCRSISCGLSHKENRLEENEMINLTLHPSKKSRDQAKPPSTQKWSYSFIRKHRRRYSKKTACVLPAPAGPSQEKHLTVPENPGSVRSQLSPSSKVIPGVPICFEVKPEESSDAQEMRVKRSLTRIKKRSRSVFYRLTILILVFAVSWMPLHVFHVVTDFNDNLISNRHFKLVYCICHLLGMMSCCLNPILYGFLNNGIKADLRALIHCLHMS
- test.details: Radioligand competition binding (125I-PYY) on membranes of HEK293 cells expressing recombinant mouse NPY-Y5 receptor
- settings: displacement of 100 pM 125I-labeled PYY, 1 h at 22° C., read-out: NPY5 IC50
Formally, pIC50 is defined as -log10 of the concentration c, with c in mol/L.

Examples with their reported pIC50 follow.
>>> numeric_readout("CC(C)c1ccccc1N1CC(C(=O)Nc2ccc(N(CC3CC3)c3ccccc3)cc2)CC1=O (racemic)")
7.33
>>> numeric_readout("CCN(c1ccc(NC(=O)C2CC(=O)N(c3ccccc3C(C)C)C2)cc1)c1nc(C)cc(C)n1 (racemic)")
7.34
>>> numeric_readout("Cc1ccc(C)c(N2CC(C(=O)Nc3ccc(N(c4ccccc4)C(C)C)cc3)CC2=O)c1 (racemic)")
7.66
>>> numeric_readout("CCOC(=O)CN(c1ccccc1)c1ccc(NC(=O)C2CC(=O)N(c3cc(C)ccc3C)C2)cc1 (racemic)")
7.89
>>> numeric_readout("Cc1cc(C)nc(Nc2ccc(NC(=O)C3CC(=O)N(C4Cc5ccccc5C4)C3)cc2)n1 (racemic)")
7.52
>>> numeric_readout("CCn1c2ccccc2c2cc(NC(=O)C3CC(=O)N(c4cc(OC)ccc4C)C3)ccc21 (racemic)")
8.00
>>> numeric_readout("Cc1cc(C)nc(Nc2ccc(NC(=O)C3CC(=O)N(c4ccccc4C(C)C)C3)cc2)n1 (racemic)")
7.60

From here, focus on the item given below.
// recorded pIC50 for CCN(c1ccc(NC(=O)C2CC(=O)N(c3cccc(OC)c3)C2)cc1)c1nc(C)cc(C)n1 (racemic) : 7.36

###

IC50 overview
- measurement.target: mouse NPY-Y5 receptors (mNPY-Y5) (Mus musculus, UniProt O70342)
- Construct: The full-length cDNA which contains the mouse NPY-Y5 (mNPY-Y5) receptor coding was amplified from mouse brain cDNA
- test.details: Radioligand competition binding (125I-PYY) on membranes of HEK293 cells expressing recombinant mouse NPY-Y5 receptor
- settings: displacement of 100 pM 125I-labeled PYY, 1 h at 22° C., read-out: NPY5 IC50
Provide the reading as a plain figure in nM.

Examples with their reported IC50 follow.
>>> numeric_readout("Cc1ccc(C)c(N2CC(C(=O)Nc3ccc(N(C)c4nc(C)cc(C)n4)cc3)CC2=O)c1 (racemic)")
20
>>> numeric_readout("CCn1c2ccccc2c2cc(NC(=O)C3CC(=O)N(CCc4ccccn4)C3)ccc21 (racemic)")
3
>>> numeric_readout("Cc1ccc(N2CC(C(=O)Nc3ccc(N(C)c4nc(C)cc(C)n4)cc3)CC2=O)cc1 (racemic)")
22

From here, focus on the item given below.
// recorded IC50 for COc1ccc(C)c(N2CC(C(=O)Nc3ccc(N(CC4CC4)c4ccccc4)cc3)CC2=O)c1 (racemic) : 34
